Cited source for all entries: ChEMBL document CHEMBL4118190

# Target system: Calcium release-activated calcium channel protein 1 (Homo sapiens, UniProt Q96D31)
# Sequence (Q96D31 whole entry, looked up): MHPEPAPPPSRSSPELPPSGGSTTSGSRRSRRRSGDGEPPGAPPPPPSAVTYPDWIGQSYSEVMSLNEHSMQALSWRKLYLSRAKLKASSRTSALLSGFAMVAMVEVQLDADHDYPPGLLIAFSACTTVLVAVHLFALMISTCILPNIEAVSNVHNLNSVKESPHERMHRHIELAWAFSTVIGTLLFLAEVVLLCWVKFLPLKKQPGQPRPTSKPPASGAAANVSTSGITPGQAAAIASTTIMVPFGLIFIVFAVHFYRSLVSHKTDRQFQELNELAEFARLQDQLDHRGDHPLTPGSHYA
# Assay remarks: Inhibition of […] Orai1-medited store operated calcium entry in human MDA-MB-231 cells at 100 uM pretreated for 15 mins followed by BAPTA addition by PBX dye based FLIPR assay relative to control
# Type: cell-based
Readout kind: inhibition (%)

compound="O=C(Cc1ccccc1)N1N=C(c2ccc([N+](=O)[O-])cc2)CC1(O)C(F)(F)F (stereo not drawn)" readout_kind=inhibition unit_symbol=% result_qualifier=< quantitative_readout=10
compound="COc1cccc(OC)c1C1=NN(C(=O)Cc2ccccc2)C(O)(C(F)(F)F)C1 (stereo not drawn)" readout_kind=inhibition unit_symbol=% result_qualifier=< quantitative_readout=10
compound="O=C(Cc1ccccc1)N1N=C(c2ccc3c(c2)CCCC3)CC1(O)C(F)(F)F (stereo not drawn)" readout_kind=inhibition unit_symbol=% result_qualifier== quantitative_readout=50
compound="Cc1cccc(C2=NN(C(=O)CC3CCCCC3)C(O)(C(F)(F)F)C2)c1 (stereo not drawn)" readout_kind=inhibition unit_symbol=% result_qualifier=< quantitative_readout=10
compound="COc1cccc(CC(=O)N2N=C(c3ccccc3C)CC2(O)C(F)(F)F)c1 (stereo not drawn)" readout_kind=inhibition unit_symbol=% result_qualifier== quantitative_readout=60
compound="O=C(Cc1ccccc1)N1N=C(c2cccc(OC(F)(F)F)c2)CC1(O)C(F)(F)F (stereo not drawn)" readout_kind=inhibition unit_symbol=% result_qualifier== quantitative_readout=50
compound="Cc1cccc(C2(O)CC(C(F)(F)F)=NN2C(=O)c2ccccc2)c1 (stereo not drawn)" readout_kind=inhibition unit_symbol=% result_qualifier=< quantitative_readout=10
compound="O=C(Cc1ccccc1)N1N=C(c2cccc(F)c2F)CC1(O)C(F)(F)F (stereo not drawn)" readout_kind=inhibition unit_symbol=% result_qualifier== quantitative_readout=80
compound="COc1ccccc1CC(=O)N1N=C(c2ccccc2C)CC1(O)C(F)(F)F (stereo not drawn)" readout_kind=inhibition unit_symbol=% result_qualifier== quantitative_readout=60
compound="O=C(Cc1ccccc1)N1N=C(c2ccncc2)CC1(O)C(F)(F)F (stereo not drawn)" readout_kind=inhibition unit_symbol=% result_qualifier=< quantitative_readout=10
compound="Cc1cccc(C2=NN(C(=O)Cc3ccccc3C)C(O)(C(F)(F)F)C2)c1 (stereo not drawn)" readout_kind=inhibition unit_symbol=% result_qualifier=< quantitative_readout=10
compound="O=C(Cc1ccccc1)N1N=C(C(F)(F)F)CC1(O)c1ccccc1[N+](=O)[O-] (stereo not drawn)" readout_kind=inhibition unit_symbol=% result_qualifier== quantitative_readout=30
compound="Cc1ccccc1C1(O)CC(C(F)(F)F)=NN1C(=O)CC1CCCCC1 (stereo not drawn)" readout_kind=inhibition unit_symbol=% result_qualifier== quantitative_readout=20
compound="O=C(Cc1ccccc1)N1N=C(c2ccccc2[N+](=O)[O-])CC1(O)C(F)(F)F (stereo not drawn)" readout_kind=inhibition unit_symbol=% result_qualifier== quantitative_readout=40
compound="O=C(Cc1ccccc1)N1N=C(c2ccc(Cl)cc2Cl)CC1(O)C(F)(F)F (stereo not drawn)" readout_kind=inhibition unit_symbol=% result_qualifier== quantitative_readout=60
compound="O=C(Cc1ccccc1)N1N=C(c2ccccc2)CC1(O)C(F)(F)F (stereo not drawn)" readout_kind=inhibition unit_symbol=% result_qualifier=< quantitative_readout=10
compound="CC(=O)Nc1ccc(C2=NN(C(=O)Cc3ccccc3)C(O)(C(F)(F)F)C2)cc1 (stereo not drawn)" readout_kind=inhibition unit_symbol=% result_qualifier=< quantitative_readout=10
compound="Cc1ccccc1C1=NN(C(=O)CC2CCCCC2)C(O)(C(F)(F)F)C1 (stereo not drawn)" readout_kind=inhibition unit_symbol=% result_qualifier=< quantitative_readout=10
compound="COc1ccccc1CC(=O)N1N=C(c2cccc(C)c2)CC1(O)C(F)(F)F (stereo not drawn)" readout_kind=inhibition unit_symbol=% result_qualifier== quantitative_readout=50
compound="Cc1ccccc1C1=NN(C(=O)c2ccccc2)C(O)(C(F)(F)F)C1 (stereo not drawn)" readout_kind=inhibition unit_symbol=% result_qualifier== quantitative_readout=20
compound="O=C(Cc1ccccc1)N1N=C(c2ccc(Cl)cc2)CC1(O)C(F)(F)F (stereo not drawn)" readout_kind=inhibition unit_symbol=% result_qualifier=< quantitative_readout=10
compound="Cc1cccc(C2=NN(C(=O)COc3ccccc3)C(O)(C(F)(F)F)C2)c1 (stereo not drawn)" readout_kind=inhibition unit_symbol=% result_qualifier=< quantitative_readout=10
compound="O=C(Cc1ccccc1)N1N=C(c2ccc(N3CCOCC3)cc2)CC1(O)C(F)(F)F (stereo not drawn)" readout_kind=inhibition unit_symbol=% result_qualifier=< quantitative_readout=10
compound="O=C(Cc1ccccc1)N1N=C(c2ccccc2F)CC1(O)C(F)(F)F (stereo not drawn)" readout_kind=inhibition unit_symbol=% result_qualifier== quantitative_readout=30
compound="COc1ccc(C2=NN(C(=O)Cc3ccccc3)C(O)(C(F)(F)F)C2)cc1 (stereo not drawn)" readout_kind=inhibition unit_symbol=% result_qualifier=< quantitative_readout=10
compound="Cc1cccc(C2=NN(C(=O)c3ccccc3)C(O)(C(F)(F)F)C2)c1 (stereo not drawn)" readout_kind=inhibition unit_symbol=% result_qualifier== quantitative_readout=30
compound="O=C(Cc1ccccc1)N1N=C(c2cccc(OCCN3CCOCC3)c2)CC1(O)C(F)(F)F (stereo not drawn)" readout_kind=inhibition unit_symbol=% result_qualifier== quantitative_readout=50
compound="COc1cccc(C2(O)CC(C(F)(F)F)=NN2C(=O)Cc2ccccc2)c1 (stereo not drawn)" readout_kind=inhibition unit_symbol=% result_qualifier== quantitative_readout=37
compound="O=C(Cc1ccccc1)N1N=C(c2cccnc2)CC1(O)C(F)(F)F (stereo not drawn)" readout_kind=inhibition unit_symbol=% result_qualifier=< quantitative_readout=10
compound="O=C(Cc1ccccc1)N1N=C(c2ccccn2)CC1(O)C(F)(F)F (stereo not drawn)" readout_kind=inhibition unit_symbol=% result_qualifier== quantitative_readout=20
compound="COc1ccccc1C1=NN(C(=O)Cc2ccccc2)C(O)(C(F)(F)F)C1 (stereo not drawn)" readout_kind=inhibition unit_symbol=% result_qualifier== quantitative_readout=25
compound="O=C(Cc1ccccc1)N1N=C(c2ccc(OC(F)(F)F)cc2)CC1(O)C(F)(F)F (stereo not drawn)" readout_kind=inhibition unit_symbol=% result_qualifier=< quantitative_readout=10
compound="O=C(Cc1ccccc1)N1N=C(c2cc(Cl)ccc2Cl)CC1(O)C(F)(F)F (stereo not drawn)" readout_kind=inhibition unit_symbol=% result_qualifier== quantitative_readout=60
compound="O=C(Cc1ccccc1)N1N=C(c2c(F)cccc2F)CC1(O)C(F)(F)F (stereo not drawn)" readout_kind=inhibition unit_symbol=% result_qualifier=< quantitative_readout=10
compound="Cc1ccc(C2=NN(C(=O)Cc3ccccc3)C(O)(C(F)(F)F)C2)cc1 (stereo not drawn)" readout_kind=inhibition unit_symbol=% result_qualifier=< quantitative_readout=10
compound="O=C(Cc1ccccc1)N1N=C(c2ccc(Br)cc2)CC1(O)C(F)(F)F (stereo not drawn)" readout_kind=inhibition unit_symbol=% result_qualifier=< quantitative_readout=10
compound="N#Cc1cccc(C2=NN(C(=O)Cc3ccccc3)C(O)(C(F)(F)F)C2)c1 (stereo not drawn)" readout_kind=inhibition unit_symbol=% result_qualifier=< quantitative_readout=10
compound="O=C(Cc1ccccc1)N1N=C(c2ccc(F)cc2)CC1(O)C(F)(F)F (stereo not drawn)" readout_kind=inhibition unit_symbol=% result_qualifier=< quantitative_readout=10
compound="N#Cc1ccc(C2=NN(C(=O)Cc3ccccc3)C(O)(C(F)(F)F)C2)cc1 (stereo not drawn)" readout_kind=inhibition unit_symbol=% result_qualifier=< quantitative_readout=10
compound="COc1ccc(CC(=O)N2N=C(c3ccccc3C)CC2(O)C(F)(F)F)cc1 (stereo not drawn)" readout_kind=inhibition unit_symbol=% result_qualifier== quantitative_readout=30
compound="Cc1ccccc1CC(=O)N1N=C(c2ccccc2C)CC1(O)C(F)(F)F (stereo not drawn)" readout_kind=inhibition unit_symbol=% result_qualifier== quantitative_readout=20
compound="O=C(Cc1ccccc1)N1N=C(c2ccccc2OC(F)(F)F)CC1(O)C(F)(F)F (stereo not drawn)" readout_kind=inhibition unit_symbol=% result_qualifier=< quantitative_readout=10
